# pIC50 per entry
TARGET OR SYSTEM: UniProt P78527
ASSAY SUMMARY: DNA-PK assay (biochemical), flashplate 33P-ATP kinase assay
CONDITION: biochemical DNA-PK assay
pIC50: −log10 of the molar value.

1. OC(c1ccc(F)c(-c2ncnc3cc(N4CCOCC4)ccc23)c1)c1ncnc2c1CCNC2 (centres unmarked)
7.52 to 8.15

pIC50 in this record for OC(c1cc(-c2ncnc3cc(N4CCOCC4)ccc23)c(F)cc1Cl)c1ncnc2ccoc12 (centres unmarked) [Example 440] : > 8.52

molecule OC(c1cc(-c2ncnc3cc(N4CCOCC4)ccc23)c(F)cc1F)c1ncnc2ccoc12 (centres unmarked) [Example 446] , pIC50 observed: > 8.52

pIC50 measured on Cn1c(C(O)c2cc(-c3ncnc4cc(N5CCOCC5)ccc34)c(F)cc2Cl)cccc1=O (centres unmarked) [Example 435] = 8.15 to 8.52
